Target: T1, SsoSSB wild-type (Sulfolobus solfataricus (Methods print …, UniProt Q97W73 1-148))
T1 sequence: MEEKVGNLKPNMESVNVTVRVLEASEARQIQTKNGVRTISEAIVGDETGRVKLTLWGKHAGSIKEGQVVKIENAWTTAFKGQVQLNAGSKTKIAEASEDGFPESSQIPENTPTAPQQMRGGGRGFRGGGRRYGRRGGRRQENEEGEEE
Test: fluorescence titration (PIFE); 65 C; Hill 1.4 ± 0.2; 50 mM Tris-HCl pH 7.6, 10 mM KCl, 5% glycerol, 0.1 mg/ml BSA, 5-50 nM DNA, 20 C (PIFE also 65 C)
Settings: protein: recombinant; chain copies: 2; label: 3' Cy3 (amino); single strand
reported property: pKd
API: returns pKd as number; meaning -log10 of concentration in mol/L.

Asked: Data request, read-out pKd, for CCCCCCCCCCCC (ssDNA) [dC12Cy3]
Given back: 7.82
